Reference source for all entries: patent US20110059889A1

molecular target: T1, soluble human FcRn (shFcRn) (human, UniProt P55899 24-297; P61769 21-119); experiment: IgG competition ELISA
T1 construct: Biotinylated for the ELISA, amine-coupled to a CM5 chip for SPR; also called biotinylated shFcRn
T1 sequence (P55899 24-297 limits assumed, chain 1 of 2): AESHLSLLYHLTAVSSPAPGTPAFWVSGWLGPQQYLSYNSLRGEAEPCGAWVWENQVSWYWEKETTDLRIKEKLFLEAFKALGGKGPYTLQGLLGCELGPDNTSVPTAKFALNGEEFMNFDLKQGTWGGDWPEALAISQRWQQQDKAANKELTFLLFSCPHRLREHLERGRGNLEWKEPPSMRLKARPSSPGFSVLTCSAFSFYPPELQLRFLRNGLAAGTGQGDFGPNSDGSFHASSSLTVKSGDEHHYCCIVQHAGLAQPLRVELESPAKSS
T1 sequence (P61769 21-119 limits assumed, chain 2 of 2): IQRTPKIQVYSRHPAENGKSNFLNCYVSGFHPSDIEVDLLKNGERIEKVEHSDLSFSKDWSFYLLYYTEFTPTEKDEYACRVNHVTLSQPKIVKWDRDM
Numbered stars: 1 amine (or outer) side, 2 acyl side, 3 side chain; on linkers, the order of the positions; unused ones are H or OH. Bridge positions count the residues as written; N and C are the ends. Square brackets hold non-standard residues; d marks the D form. Ends that are not written are not given here. Tyr(Me) = COc1ccc(C[C@H](N[*:1])C(=O)[*:2])cc1; Pen = CC(C)(S)[C@H](N)C(=O)O
OBSERVED_PROPERTY: IC50 (µM)
Field format: number, assumed µM, no unit text.

// field: IC50; key: QRF[Pen]TGH[Tyr(Me)]GGLYPCNGP-NH2 (disulfide 4-14; N-terminus assumed; SMILES COc1ccc(C[C@@H]2NC(=O)[C@H](Cc3c[nH]cn3)NC(=O)CNC(=O)[C@H]([C@@H](C)O)NC(=O)[C@@H](NC(=O)[C@H](Cc3ccccc3)NC(=O)[C@H](CCCNC(=N)N)NC(=O)[C@@H](N)CCC(N)=O)C(C)(C)SSC[C@@H](C(=O)N[C@@H](CC(N)=O)C(=O)NCC(=O)N3CCC[C@H]3C(N)=O)NC(=O)[C@@H]3CCCN3C(=O)[C@H](Cc3ccc(O)cc3)NC(=O)[C@H](CC(C)C)NC(=O)CNC(=O)CNC2=O)cc1) [Peptide No. 56] ; value = 100
